Sourced from ChEMBL document CHEMBL5346912

# TARGET ENTITY: Platelet-derived growth factor receptor beta (Homo sapiens, UniProt P09619)
# Sequence (P09619 whole entry): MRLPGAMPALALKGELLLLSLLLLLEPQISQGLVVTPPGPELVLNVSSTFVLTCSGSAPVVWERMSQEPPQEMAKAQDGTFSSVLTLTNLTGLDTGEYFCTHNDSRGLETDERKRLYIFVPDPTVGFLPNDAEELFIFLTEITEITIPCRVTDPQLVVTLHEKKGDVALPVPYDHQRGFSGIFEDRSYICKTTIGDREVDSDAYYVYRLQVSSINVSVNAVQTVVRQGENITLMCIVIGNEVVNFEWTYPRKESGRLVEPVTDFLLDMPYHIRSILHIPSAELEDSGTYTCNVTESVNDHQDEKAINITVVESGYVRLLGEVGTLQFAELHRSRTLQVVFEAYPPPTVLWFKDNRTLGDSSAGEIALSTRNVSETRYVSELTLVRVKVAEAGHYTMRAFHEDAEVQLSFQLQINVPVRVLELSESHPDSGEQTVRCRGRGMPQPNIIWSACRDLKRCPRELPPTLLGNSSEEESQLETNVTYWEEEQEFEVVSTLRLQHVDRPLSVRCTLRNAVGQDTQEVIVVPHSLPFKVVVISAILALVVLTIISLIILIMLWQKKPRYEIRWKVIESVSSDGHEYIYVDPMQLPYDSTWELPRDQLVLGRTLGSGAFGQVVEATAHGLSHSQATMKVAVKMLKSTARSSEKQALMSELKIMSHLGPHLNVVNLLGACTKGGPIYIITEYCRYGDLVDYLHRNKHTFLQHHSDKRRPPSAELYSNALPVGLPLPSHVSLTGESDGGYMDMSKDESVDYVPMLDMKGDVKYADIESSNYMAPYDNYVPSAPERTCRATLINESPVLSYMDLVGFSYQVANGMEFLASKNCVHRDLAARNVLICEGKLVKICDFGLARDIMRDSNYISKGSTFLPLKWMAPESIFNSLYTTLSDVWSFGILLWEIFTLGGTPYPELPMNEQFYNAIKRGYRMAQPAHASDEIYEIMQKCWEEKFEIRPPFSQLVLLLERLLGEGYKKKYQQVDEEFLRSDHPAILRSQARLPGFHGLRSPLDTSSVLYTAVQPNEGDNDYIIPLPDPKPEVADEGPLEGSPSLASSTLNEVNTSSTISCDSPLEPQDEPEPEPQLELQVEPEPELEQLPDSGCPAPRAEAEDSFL

TEST SMILES | IC50
CC(C)(c1cc(NC(=O)Nc2ccc(-c3cc(-c4ccc(OCCN5CCOCC5)cc4)[nH]n3)cc2)no1)C(F)(F)F | 16.3 nM

----------
Recorded AUC(0-inf) values for a group of compounds are listed next.
# ASSAY EXPLANATION: AUC (0 to infinity) in fasted Sprague-Dawley rat at 25 mg/kg, po
# Assay type: ADME, organism-based
# Set-up: dose 25 mg/kg, route po
# SETUP CONDITIONS: in vivo
VALUE TYPE: AUC(0-inf) (ng·h/mL)

TEST SMILES | MEASUREMENT
CC(C)(C)c1cc(NC(=O)Nc2ccc(-c3cc(-c4ccc(OCCN5CCOCC5)cc4)[nH]n3)cc2)no1 | 20500
CC(C)(c1cc(NC(=O)Nc2ccc(-c3cc(-c4ccc(OCCN5CCOCC5)cc4)[nH]n3)cc2)no1)C(F)(F)F | 43800

----------
# TARGET ENTITY: UniProt:P07949
# Sequence (P07949 whole entry): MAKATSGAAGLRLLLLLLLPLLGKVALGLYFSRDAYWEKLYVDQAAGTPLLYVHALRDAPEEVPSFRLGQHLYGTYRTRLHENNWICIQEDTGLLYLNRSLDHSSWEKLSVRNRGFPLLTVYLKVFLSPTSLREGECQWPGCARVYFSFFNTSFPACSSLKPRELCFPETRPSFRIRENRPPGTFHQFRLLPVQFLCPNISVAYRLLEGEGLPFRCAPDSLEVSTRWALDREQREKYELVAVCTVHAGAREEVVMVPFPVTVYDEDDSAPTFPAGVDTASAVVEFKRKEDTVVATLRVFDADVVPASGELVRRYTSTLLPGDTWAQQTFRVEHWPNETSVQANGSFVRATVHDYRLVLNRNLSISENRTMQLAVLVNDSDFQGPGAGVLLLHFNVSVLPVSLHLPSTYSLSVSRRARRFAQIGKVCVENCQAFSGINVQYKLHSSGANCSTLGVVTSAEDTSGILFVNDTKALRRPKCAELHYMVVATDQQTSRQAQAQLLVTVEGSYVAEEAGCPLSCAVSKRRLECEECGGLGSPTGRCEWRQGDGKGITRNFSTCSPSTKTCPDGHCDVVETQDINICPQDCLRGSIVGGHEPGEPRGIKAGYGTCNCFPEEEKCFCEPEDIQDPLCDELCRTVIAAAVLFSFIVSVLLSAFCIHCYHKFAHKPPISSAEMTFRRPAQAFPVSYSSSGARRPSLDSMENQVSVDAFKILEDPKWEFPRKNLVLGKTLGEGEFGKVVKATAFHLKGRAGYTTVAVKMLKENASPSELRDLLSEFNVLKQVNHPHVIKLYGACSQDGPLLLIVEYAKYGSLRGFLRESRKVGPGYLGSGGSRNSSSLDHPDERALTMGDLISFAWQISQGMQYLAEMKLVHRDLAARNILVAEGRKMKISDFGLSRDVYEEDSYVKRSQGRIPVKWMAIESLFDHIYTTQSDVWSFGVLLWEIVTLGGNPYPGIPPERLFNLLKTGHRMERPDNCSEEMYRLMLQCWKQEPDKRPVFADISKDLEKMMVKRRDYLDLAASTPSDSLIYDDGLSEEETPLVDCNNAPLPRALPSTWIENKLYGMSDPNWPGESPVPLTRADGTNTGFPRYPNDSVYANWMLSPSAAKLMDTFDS
pKd: −log10 of the molar value.
pKd reference

TEST SMILES | pKd
Cc1cc(NC(=O)Nc2cc(C(C)(C)C)on2)ccc1-c1cc(-c2ccc(OCCN3CCOCC3)cc2)[nH]n1 | 7.74
Cc1cc(OCCN2CCOCC2)ccc1-c1cc(-c2ccc(NC(=O)Nc3cc(C(C)(C)C)on3)cc2)n[nH]1 | 7.90
COc1cc(NC(=O)Nc2cc(C(C)(C)C)on2)ccc1-c1cc(-c2ccc(OCCN3CCOCC3)cc2)[nH]n1 | 7.49
CN(C)CCCOc1ccc(-c2cc(-c3ccc(NC(=O)Nc4cc(C(C)(C)C)on4)cc3)n[nH]2)cc1 | 8.70
CC(C)(c1cc(NC(=O)Nc2ccc(-c3cc(-c4ccc(OCCN5CCOCC5)cc4)[nH]n3)cc2)no1)C(F)(F)F | 8.19
CC(C)(C)c1cc(NC(=O)Nc2ccc(-c3cc(-c4ccc(OCCN5CCOCC5)cc4Cl)[nH]n3)cc2)no1 | 7.96
COc1cc(-c2cc(-c3ccc(NC(=O)Nc4cc(C(C)(C)C)on4)c(F)c3)n[nH]2)ccc1OCCN1CCOCC1 | 7.99

----------
# TARGET ENTITY: Vascular endothelial growth factor receptor 2 (Homo sapiens)
# Sequence (P35968 whole entry): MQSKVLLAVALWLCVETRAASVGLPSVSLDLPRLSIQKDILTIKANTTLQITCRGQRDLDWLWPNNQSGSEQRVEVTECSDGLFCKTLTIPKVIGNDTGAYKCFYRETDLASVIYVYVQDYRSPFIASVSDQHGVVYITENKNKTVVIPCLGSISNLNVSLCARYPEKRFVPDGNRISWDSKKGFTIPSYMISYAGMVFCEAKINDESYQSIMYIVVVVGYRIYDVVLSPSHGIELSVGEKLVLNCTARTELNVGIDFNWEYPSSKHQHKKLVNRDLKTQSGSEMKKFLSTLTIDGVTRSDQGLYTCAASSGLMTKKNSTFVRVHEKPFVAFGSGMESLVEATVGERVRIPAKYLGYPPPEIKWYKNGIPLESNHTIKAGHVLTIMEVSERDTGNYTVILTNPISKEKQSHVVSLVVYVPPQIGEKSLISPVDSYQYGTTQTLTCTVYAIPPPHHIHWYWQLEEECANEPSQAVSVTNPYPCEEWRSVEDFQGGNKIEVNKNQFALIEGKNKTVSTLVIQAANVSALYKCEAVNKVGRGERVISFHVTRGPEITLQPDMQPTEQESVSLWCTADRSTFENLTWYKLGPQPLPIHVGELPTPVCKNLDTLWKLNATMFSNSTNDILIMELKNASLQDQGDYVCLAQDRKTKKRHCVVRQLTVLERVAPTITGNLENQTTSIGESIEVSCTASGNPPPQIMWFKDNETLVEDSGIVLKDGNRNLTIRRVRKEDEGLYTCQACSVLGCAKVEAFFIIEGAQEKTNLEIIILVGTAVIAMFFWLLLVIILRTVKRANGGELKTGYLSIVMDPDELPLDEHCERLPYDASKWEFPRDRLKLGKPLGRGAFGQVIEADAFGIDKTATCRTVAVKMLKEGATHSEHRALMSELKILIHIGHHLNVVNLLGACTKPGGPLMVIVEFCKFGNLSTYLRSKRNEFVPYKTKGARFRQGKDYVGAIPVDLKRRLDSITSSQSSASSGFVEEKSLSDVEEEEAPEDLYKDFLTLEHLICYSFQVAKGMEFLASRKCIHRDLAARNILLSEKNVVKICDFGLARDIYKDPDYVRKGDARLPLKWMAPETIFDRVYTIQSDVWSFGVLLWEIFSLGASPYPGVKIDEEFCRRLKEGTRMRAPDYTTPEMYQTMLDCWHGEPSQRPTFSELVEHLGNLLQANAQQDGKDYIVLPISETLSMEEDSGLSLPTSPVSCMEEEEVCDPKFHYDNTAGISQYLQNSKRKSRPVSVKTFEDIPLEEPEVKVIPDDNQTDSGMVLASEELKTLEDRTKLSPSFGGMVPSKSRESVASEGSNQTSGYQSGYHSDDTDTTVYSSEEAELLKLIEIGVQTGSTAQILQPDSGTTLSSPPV

TEST SMILES | UNIT SPEC | IC50
CC(C)(c1cc(NC(=O)Nc2ccc(-c3cc(-c4ccc(OCCN5CCOCC5)cc4)[nH]n3)cc2)no1)C(F)(F)F | µM | 0.38

----------
# ASSAY EXPLANATION: AUC (0 to infinity) in Sprague-Dawley rat at 5 mg/kg, iv
# Format: ADME, organism-based
# Set-up: dose 5 mg/kg, route iv
# SETUP CONDITIONS: in vivo

TEST SMILES | AUC(0-inf) / ng·h/mL
CC(C)(c1cc(NC(=O)Nc2ccc(-c3cc(-c4ccc(OCCN5CCOCC5)cc4)[nH]n3)cc2)no1)C(F)(F)F | 32500
CC(C)(C)c1cc(NC(=O)Nc2ccc(-c3cc(-c4ccc(OCCN5CCOCC5)cc4)[nH]n3)cc2)no1 | 15600

----------
# System: BaF3
# ASSAY EXPLANATION: cells
# SETUP CONDITIONS: Mus musculus, BaF3, 72 h
# Description: Antiproliferative activity against mouse BaF3 cells incubated for 72 hrs by CCK8 assay
VALUE TYPE: log10 IC50 (log10 of the value in nM)

TEST SMILES | log10 IC50
COc1cc(-c2cc(-c3ccc(NC(=O)Nc4cc(C(C)(C)C(F)(F)F)on4)c(F)c3)n[nH]2)ccc1OCCN1CCOCC1 | 2.57
CC(C)(C)c1cc(NC(=O)Nc2ccc(-c3cc(-c4ccc(OCCCN5CCOCC5)cc4)[nH]n3)cc2)no1 | 3.03
CN(C)CCCOc1ccc(-c2cc(-c3ccc(NC(=O)Nc4cc(C(C)(C)C)on4)cc3)n[nH]2)cc1 | 3.07
CO[C@]1(C(=O)N[C@@H](C)c2ccc(-n3cc(F)cn3)nc2)CC[C@@H](c2nc(C)cc(Nc3cc(C)[nH]n3)n2)CC1 | 3.02
CC(C)(c1cc(NC(=O)Nc2ccc(-c3cc(-c4ccc(OCCN5CCOCC5)cc4)[nH]n3)cc2)no1)C(F)(F)F | 3.59
COc1cc(NC(=O)Nc2cc(C(C)(C)C)on2)ccc1-c1cc(-c2ccc(OCCN3CCOCC3)cc2)[nH]n1 | 2.80
CC(C)(C)c1cc(NC(=O)Nc2ccc(-c3cc(-c4ccc(OCCN5CCOCC5)cc4)[nH]n3)cc2)no1 | 3.09
COc1cc(-c2cc(-c3ccc(NC(=O)Nc4cc(C(C)(C)C(F)(F)F)on4)cc3)n[nH]2)ccc1OCCN1CCOCC1 | 2.26

----------
Entries and their pIC50
# Tested on: BaF3
# ASSAY EXPLANATION: Antiproliferative activity against mouse BaF3 cells expressing CCDC6-RET-G810C incubated for 72 hrs by CCK8 assay
# Type: functional, cell-based
# SETUP CONDITIONS: BaF3, 72 h
pIC50: −log10 of the molar value.
VALUE TYPE: pIC50

TEST SMILES | VALUE TYPE | MEASUREMENT
Cc1cc(OCCN2CCOCC2)ccc1-c1cc(-c2ccc(NC(=O)Nc3cc(C(C)(C)C)on3)cc2)n[nH]1 | pIC50 | 5.69
COc1cc(-c2cc(-c3ccc(NC(=O)Nc4cc(C(C)(C)C(F)(F)F)on4)cc3)n[nH]2)ccc1OCCN1CCOCC1 | pIC50 | 6.86
CC(C)(C)c1cc(NC(=O)Nc2ccc(-c3cc(-c4ccc(OCCN5CCOCC5)cc4)[nH]n3)c(Cl)c2)no1 | pIC50 | 6.39
CC(C)(C)c1cc(NC(=O)Nc2ccc(-c3cc(-c4ccc(OCCN5CCOCC5)cc4)[nH]n3)cc2F)no1 | pIC50 | 7.00
COc1cc(NC(=O)Nc2cc(C(C)(C)C)on2)ccc1-c1cc(-c2ccc(OCCN3CCOCC3)cc2)[nH]n1 | pIC50 | 5.95
CC(C)(C)c1cc(NC(=O)Nc2ccc(-c3cc(-c4ccc(OCCN5CCOCC5)cc4Cl)[nH]n3)cc2)no1 | pIC50 | 6.27
CC(C)(C)c1cc(NC(=O)Nc2ccc(-c3cc(-c4ccc(OCCN5CCOCC5)cc4)[nH]n3)cc2Cl)no1 | pIC50 | 6.47
COc1cc(-c2cc(-c3ccc(NC(=O)Nc4cc(C(C)(C)C)on4)c(F)c3)n[nH]2)ccc1OCCN1CCOCC1 | pIC50 | 6.91

----------
Entries and their measured pIC50 follow.
# System: BaF3
# ASSAY EXPLANATION: Antiproliferative activity against mouse BaF3 cells expressing CCDC6-RET-G810C incubated for 72 hrs by CCK8 assay
# Type: functional, cell-based
# SETUP CONDITIONS: BaF3, 72 h
pIC50: −log10 of the molar value.

TEST SMILES | pIC50
CC(C)(C)c1cc(NC(=O)Nc2ccc(-c3c[nH]c(-c4ccc(OCCN5CCOCC5)cc4Cl)n3)cc2)no1 | 6.10
CC(C)(C)c1cc(NC(=O)Nc2ccc(-c3cc(-c4ccc(OCCN5CCOCC5)cc4)[nH]n3)cc2)no1 | 7.05
CC(C)(C)c1cc(NC(=O)Nc2ccc(-c3cc(-c4ccc(OCCN5CCOCC5)c(F)c4)[nH]n3)cc2)no1 | 6.90
Cc1cc(NC(=O)Nc2cc(C(C)(C)C)on2)ccc1-c1cc(-c2ccc(OCCN3CCOCC3)cc2)[nH]n1 | 6.71
CC(C)(c1cc(NC(=O)Nc2ccc(-c3cc(-c4ccc(OCCN5CCOCC5)cc4)[nH]n3)cc2)no1)C(F)(F)F | 7.07
COc1cc(-c2cc(-c3ccc(NC(=O)Nc4cc(C(C)(C)C)on4)cc3)n[nH]2)ccc1OCCN1CCOCC1 | 6.88
CN(C)CCCOc1ccc(-c2cc(-c3ccc(NC(=O)Nc4cc(C(C)(C)C)on4)cc3)n[nH]2)cc1 | 6.88
CC(C)(C)c1cc(NC(=O)Nc2ccc(-c3cc(-c4cccc(OCCN5CCOCC5)c4)[nH]n3)cc2)no1 | 6.23

----------
# ASSAY EXPLANATION: Half life in fasted Sprague-Dawley rat at 25 mg/kg, po
# Format: ADME, organism-based
# SETUP CONDITIONS: in vivo
Measured half-life, listed per entry.
VALUE TYPE: half-life (h)

TEST SMILES | MEASUREMENT
CC(C)(c1cc(NC(=O)Nc2ccc(-c3cc(-c4ccc(OCCN5CCOCC5)cc4)[nH]n3)cc2)no1)C(F)(F)F | 12.4
CC(C)(C)c1cc(NC(=O)Nc2ccc(-c3cc(-c4ccc(OCCN5CCOCC5)cc4)[nH]n3)cc2)no1 | 6.9
